Molecular target: T1, EsCas13d, nuclease-dead (Eubacterium siraeum, UniProt B0MS50, R295A;H300A;R849A;H854A)
T1 sequence: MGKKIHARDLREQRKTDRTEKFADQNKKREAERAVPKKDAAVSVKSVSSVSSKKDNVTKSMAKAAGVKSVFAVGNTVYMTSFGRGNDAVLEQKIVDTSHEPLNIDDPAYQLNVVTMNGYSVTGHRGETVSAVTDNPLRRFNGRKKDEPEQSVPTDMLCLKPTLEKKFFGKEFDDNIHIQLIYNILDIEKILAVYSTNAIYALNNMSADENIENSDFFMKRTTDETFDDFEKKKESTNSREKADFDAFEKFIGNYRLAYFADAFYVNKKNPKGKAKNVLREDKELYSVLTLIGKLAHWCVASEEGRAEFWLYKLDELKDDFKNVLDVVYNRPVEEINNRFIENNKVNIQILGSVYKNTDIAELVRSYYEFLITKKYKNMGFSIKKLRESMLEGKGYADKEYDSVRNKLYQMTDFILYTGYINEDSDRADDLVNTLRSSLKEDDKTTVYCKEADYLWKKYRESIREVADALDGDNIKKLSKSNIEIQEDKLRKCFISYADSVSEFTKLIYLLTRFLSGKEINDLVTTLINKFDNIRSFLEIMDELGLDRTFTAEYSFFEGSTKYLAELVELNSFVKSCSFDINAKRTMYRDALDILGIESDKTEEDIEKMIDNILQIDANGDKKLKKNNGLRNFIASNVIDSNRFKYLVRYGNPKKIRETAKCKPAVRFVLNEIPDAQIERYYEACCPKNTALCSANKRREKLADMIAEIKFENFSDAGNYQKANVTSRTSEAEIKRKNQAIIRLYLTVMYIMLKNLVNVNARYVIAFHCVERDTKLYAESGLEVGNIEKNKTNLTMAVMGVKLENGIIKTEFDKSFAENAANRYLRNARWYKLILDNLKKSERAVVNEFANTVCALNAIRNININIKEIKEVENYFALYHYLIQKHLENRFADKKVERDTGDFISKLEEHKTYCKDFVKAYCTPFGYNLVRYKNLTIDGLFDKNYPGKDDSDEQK
Assay: crRNA (strand 1, pre-loaded); Mg2+; 40 mM Tris-HCl pH 7.5, 150 mM NaCl, 6 mM MgCl2, 1 mM DTT, 0.1% Tween-20, 0.2 mg/ml BSA; 25 C; 10 min per concentration, then washed
Conditions: tags: His6-TwinStrep-SUMO cleaved; N-terminal SNAP kept (SNAP-Surface 488); label: 3' end held by stalled T7 RNA polymerase
PROPERTY NAME: Kd

binder="target 2 MT 5'PFS CGC 3'PFS ACG (mixed) RNA 1: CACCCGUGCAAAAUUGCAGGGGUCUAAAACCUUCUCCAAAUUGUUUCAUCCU RNA 2: GGGAAUGGAUCCACAUCUACGAAUUCCGCAGGAUGAAACAAUUUGGAGAAGACGAGAUCGGAAGAGCACACGU" result_value="5.2 nM"
binder="target 1 MT 5'PFS UAC 3'PFS AUU (mixed) RNA 1: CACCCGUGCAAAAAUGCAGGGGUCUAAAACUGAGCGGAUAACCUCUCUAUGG RNA 2: GGGAAUGGAUCCACAUCUACGAAUUCUACCCAUAGAGAGGUUAUCCGCUCAAUUAGAUCGGAAGAGCACACGU" result_value="26.5 nM"
